# Test system: TK-10 renal
# protocol: NCI-60 one-dose screen, 48 h (100 = growth as untreated, 0 = no growth, -100 = all killed)
# recorded.conditions: 10 µM unless noted
Compounds without any hit were thinned out: in the full panel of roughly 83,000, 20% have a hit.
Please provide measured growth for the entries that follow.
Use % as the unit, but write only the number.

Annotate the compound O=C1c2c(c3c4cccnc4[nH]c3c3ccc4ccccc4c23)C(=O)N1CCO with its measured growth.
127

Annotate the compound O=C(Oc1ccc2ccc(=O)oc2c1)c1ccc(Cl)cc1 with its measured growth.
125

Annotate the compound O=C(CSc1nc2sc3c(c2c(=O)n1-c1ccc(Cl)cc1)CCCC3)NNC(=O)Nc1ccc(Cl)c(C(F)(F)F)c1 with its measured growth.
38.3

Annotate the compound Nc1nc(N)c2c(n1)NC(c1ccc(C(F)(F)F)cc1)CC(c1ccc(Nc3nc(NCCO)nc(Nc4ccc(Cl)cc4)n3)cc1)=N2 (stereo unspecified) with its measured growth.
91.1

Annotate the compound COc1ccc(NC2=C(Cl)C(=O)C(C)=C(C)C2=O)cc1OC with its measured growth.
170

Annotate the compound COc1ccc(NC(=O)c2sc3nc(-c4cnccn4)cc(-c4cccs4)c3c2N)cc1 with its measured growth.
105

Annotate the compound CC(C)(C)OC(=O)N1C(=O)c2c(c3c4ccccc4[nH]c3c3ccc4ccccc4c23)C1=O with its measured growth.
36.8

Annotate the compound CS(=O)(=O)c1ccc(-n2cc(/C=C/C(=O)c3ccc(NC(=O)CO[N+](=O)[O-])cc3)c(-c3ccc(Cl)cc3)n2)cc1 with its measured growth.
111

Annotate the compound Nc1nc(N)c2c(n1)NC(c1ccc(F)cc1)CC(c1ccc(Nc3nc(NCCO)nc(Nc4ccc(Cl)cc4)n3)cc1)=N2 (stereo unspecified) with its measured growth.
111

Annotate the compound O=C(N/N=C/c1ccco1)c1[nH]c2ccc(Br)cc2c1-c1ccccc1 with its measured growth.
98.7

Annotate the compound O=c1/c(=C\c2ccc(-c3ccccc3)o2)sc2nc(-c3ccccc3)nn12 with its measured growth.
95.1

====

# System: NCI/ADR-RES ovarian
# protocol: NCI-60 one-dose screen, 48 h (100 = growth as untreated, 0 = no growth, -100 = all killed)
# recorded.conditions: 10 µM unless noted
This is part of a sample that, as a whole, favours compounds with a hit. Of some 83,000 tested, about 20% had one in any assay.
reported.property: growth (%)
Use % as the unit, but write only the number.

Annotate the compound Nc1c(C(=O)Nc2ccc(C(F)(F)F)cc2)sc2nc(-c3cnccn3)cc(-c3cccs3)c12 with its measured growth.
78.2

Annotate the compound COc1cccc(N2CCN(c3ncnc4c3[nH]c3ccc(F)cc34)C[C@@H]2C)c1 with its measured growth.
7.77

Annotate the compound CN1CCc2c(sc3ncnc(N/N=C/c4ccc(Cl)c(Cl)c4)c23)C1 with its measured growth.
29.6

Annotate the compound CCCC(=O)NC(c1ccc(N(CC)CC)cc1)c1cc(C)c2cccnc2c1O (centres undefined) with its measured growth.
6.31

Annotate the compound COc1cc(-c2nc3ccc(-c4nnc(SCC(=O)Nc5ccc(C(=O)/C=C/c6ccc(Cl)cc6)cc5)o4)cc3[nH]2)cc(OC)c1OC with its measured growth.
106

Annotate the compound OC1CCN(CCCOc2c3ccccc3nc3c2oc2ccccc23)CC1 with its measured growth.
-17.9

Annotate the compound Cc1cccc2sc(/N=C(\N)C(Br)Br)nc12 with its measured growth.
17.6

Annotate the compound Cc1ccccc1NC(=O)/C=C/c1ccc(OCCOc2ccc3c(C)cc(=O)oc3c2)cc1 with its measured growth.
84.6

Annotate the compound COc1ccc(-c2nc3ccc(-c4nnc(SCC(=O)Nc5ccc(C(C)=O)cc5)o4)cc3[nH]2)cc1 with its measured growth.
118

====

# System: U251 CNS
# protocol: NCI-60 one-dose screen, 48 h (100 = growth as untreated, 0 = no growth, -100 = all killed)
# recorded.conditions: 10 µM unless noted
This is part of a sample that, as a whole, favours compounds with a hit. Of some 83,000 tested, about 20% had one in any assay.
growth below 60% gives not fulfilled; growth at or above it gives fulfilled.

Can [Cl][Ru].c1ccc(-c2cccc(-c3ccccn3)n2)nc1.c1ccc(-c2ccnc3c2ccc2c(-c4ccccc4)ccnc23)cc1 be said to have growth at or above 60%?
not fulfilled

Can O=C(CSc1nc2sc3c(c2c(=O)n1-c1ccc(Cl)cc1)CCCC3)N/N=C/c1ccc(F)cc1 be said to have growth at or above 60%?
fulfilled

Can CC(C)(C)Nc1nc2c(OCCc3ccccc3)cccn2c1-c1ccc(Cl)cc1 be said to have growth at or above 60%?
not fulfilled

Can N#Cc1nc(-c2ccccc2)oc1S(N)(=O)=O be said to have growth at or above 60%?
fulfilled

Can c1ccc2c(NCCCN3CCOCC3)c3oc4ccccc4c3nc2c1 be said to have growth at or above 60%?
not fulfilled

Can CCOC(=O)c1csc(NC(=O)CSc2nc3sc4c(c3c(=O)n2-c2ccc(Cl)cc2)CCCC4)n1 be said to have growth at or above 60%?
fulfilled

Can CCN1CCN(S(=O)(=O)c2oc(-c3ccc(Cl)cc3)nc2C#N)CC1 be said to have growth at or above 60%?
fulfilled

Can Nc1ncc(-c2ccc3ncnc(N4CCc5cc(F)c(Cl)cc54)c3c2)cc1CO be said to have growth at or above 60%?
not fulfilled

Can COC(=O)c1ccc(NC(=S)N2CCc3ccc([N+](=O)[O-])cc3C2)cc1O be said to have growth at or above 60%?
fulfilled

Can CC(C)NC(=O)c1cc(-c2ccc(NC(=O)Nc3ccc(N4CCOCC4)c(C(F)(F)F)c3)cc2)nc2cccnc12 be said to have growth at or above 60%?
not fulfilled

Can COc1ccc(C(=O)/C=C/c2ccc(OCc3ccc(Cl)cc3)c(OC)c2)cc1OC be said to have growth at or above 60%?
not fulfilled

Can COc1ccc(COc2ccc(/C=C3/C(=O)Nc4cc(Cl)ccc43)cc2)cc1 be said to have growth at or above 60%?
fulfilled

Can COc1cccc(OC)c1-c1nnn(C)c1C(=S)N1CCN(c2ccc([N+](=O)[O-])cc2Cl)CC1 be said to have growth at or above 60%?
fulfilled

Can CN1C(=O)N(c2ccccc2)C2N=C(N/N=C/c3ccccc3)SC21 (stereo not drawn) be said to have growth at or above 60%?
not fulfilled

Can Cc1cc2nc3c4cc(Cl)ccc4n(CC(=O)NCCN(C)C)c3nc2cc1C be said to have growth at or above 60%?
not fulfilled

Can O=C(NNc1nc2cc(F)ccc2n2c(CN3CC4(COC4)C3)ccc12)c1cnccn1 be said to have growth at or above 60%?
not fulfilled

Can Cc1cc(=O)oc2cc(OCCCOc3ccc(/C=C/C(=O)Nc4ccc(Cl)cc4)cc3)ccc12 be said to have growth at or above 60%?
not fulfilled

Can NS(=O)(=O)c1cccc(Nc2nc(SCC(=O)c3ccc(Cl)cc3)nc3ccccc23)c1 be said to have growth at or above 60%?
not fulfilled

Can OC1CCN(CCCOc2c3ccccc3nc3c2oc2ccc(Cl)cc23)CC1 be said to have growth at or above 60%?
not fulfilled

Can Clc1ccc2c(NCCCN3CCOCC3)c3oc4ccc(Cl)cc4c3nc2c1 be said to have growth at or above 60%?
not fulfilled

Can O=C(N/N=C/c1ccc[nH]1)c1[nH]c2ccc(Br)cc2c1-c1ccccc1 be said to have growth at or above 60%?
not fulfilled

Can O=C(CSc1nnc(-c2ccc3nc(-c4ccc(Cl)cc4)[nH]c3c2)o1)Nc1ccc(C(=O)/C=C/c2ccc(Cl)cc2)cc1 be said to have growth at or above 60%?
fulfilled

Can C=CCn1c(SCC(=O)c2ccc(Br)cc2)nnc1-c1c[nH]c2ccccc12 be said to have growth at or above 60%?
fulfilled

Can O=C(CSc1nccc(=O)[nH]1)Nc1ccc(-c2nc3ccccc3[nH]2)cc1 be said to have growth at or above 60%?
fulfilled

Can CS(=O)(=O)Nc1ccc(-c2nn(-c3ccc(S(C)(=O)=O)cc3)cc2/C=C/C(=O)c2ccc(NC(=O)CO[N+](=O)[O-])cc2)cc1 be said to have growth at or above 60%?
fulfilled

Can NS(=O)(=O)c1cccc(Nc2nc(SCC(=O)c3ccc([N+](=O)[O-])cc3)nc3ccccc23)c1 be said to have growth at or above 60%?
not fulfilled

Can O=C1Nc2ccc(Cl)cc2/C1=C/c1ccc(OCC(=O)c2ccc(Br)cc2)cc1 be said to have growth at or above 60%?
fulfilled

Can CN1CCN(Cc2ccc(NC(=O)c3cncc(C#Cc4cnc5[nH]ncc5c4)c3)cc2C(F)(F)F)CC1 be said to have growth at or above 60%?
not fulfilled

Can N#Cc1c(-c2ccc(Cl)cc2)nc2c(-c3ccccc3)c(Nc3ccccc3)nn2c1N be said to have growth at or above 60%?
not fulfilled

Can Cc1cccc(/C=C/c2nn3c(-c4ccco4)nnc3s2)c1 be said to have growth at or above 60%?
fulfilled

Can CS(=O)(=O)c1ccc(-c2nc3ccccn3c2/C=N/Nc2nc(-c3ccc(Br)cc3)cs2)cc1 be said to have growth at or above 60%?
fulfilled

Can CN(C)CCCNc1c2ccccc2nc2c1oc1ccc(Cl)cc12 be said to have growth at or above 60%?
not fulfilled

Can COc1cc(/C=C/C(=O)c2ccccc2)ccc1Oc1nc(NCCO)nc(N2CCOCC2)n1 be said to have growth at or above 60%?
fulfilled

Can COc1ccc(/C=C2\SC(=Nc3cc(C)on3)NC2=O)cc1 be said to have growth at or above 60%?
fulfilled

Can O=C(CSc1nc2sc3c(c2c(=O)n1-c1ccc(Cl)cc1)CCCC3)NNC(=O)Nc1cccc(C(F)(F)F)c1 be said to have growth at or above 60%?
not fulfilled

Can COc1cc(/C=C/C(=O)c2ccc(F)cc2)ccc1Oc1nc(NCCO)nc(N2CCOCC2)n1 be said to have growth at or above 60%?
not fulfilled

Can COc1cc2nc(-c3ccc(C)cc3)cc(OCCCNCC3CCCO3)c2cc1OC (stereo not drawn) be said to have growth at or above 60%?
fulfilled
